The compounds listed here are annotated with their EC50.
# target or system: N-formyl peptide receptor 2 (Homo sapiens, UniProt P25090)
# Sequence (P25090 whole entry): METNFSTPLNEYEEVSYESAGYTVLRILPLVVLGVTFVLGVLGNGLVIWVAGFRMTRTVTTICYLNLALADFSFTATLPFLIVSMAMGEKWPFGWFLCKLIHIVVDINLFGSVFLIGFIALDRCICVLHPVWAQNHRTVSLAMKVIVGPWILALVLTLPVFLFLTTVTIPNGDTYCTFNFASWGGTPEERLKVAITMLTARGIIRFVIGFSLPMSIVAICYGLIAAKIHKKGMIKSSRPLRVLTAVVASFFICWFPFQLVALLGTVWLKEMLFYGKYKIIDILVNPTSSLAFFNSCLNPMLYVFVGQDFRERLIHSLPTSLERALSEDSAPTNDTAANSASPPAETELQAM
# run description: FPR2 and FPR1 Cyclic Adenosine Monophosphate (cAMP) Assays: A mixture of forskolin (5 μM final for FPR2 or 10 μM final for FPR1) and IBMX (200 μM final) were added to 384-well Proxiplates (Perkin-Elmer) pre-dotted with test compounds in DMSO (1% final) at final concentrations in the range of 1.7 nM to 100 μM. Chinese Hamster Ovary cells (CHO) overexpressing human FPR1 or human FPR2 receptors were cultured in F-12 (Ham's) medium supplemented with 10% qualified FBS, 250 μg/ml zeocin and 300 μg/ml hygromycin (Life Technologies). Reactions were initiated by adding 2,000 human FPR2 cells per well or 4,000 human FPR1 cells per well in Dulbecco's PBS (with calcium and magnesium) (Life Technologies) supplemented with 0.1% BSA (Perkin-Elmer). The reaction mixtures were incubated for 30 min at room temperature. The level of intracellular cAMP was determined using the HTRF HiRange cAMP assay reagent kit (Cisbio) according to manufacturer's instruction. Solutions of cryptate conjugated anti-cAMP and d2 flurorophore-labelled cAMP were made in a supplied lysis buffer separately. Upon completion of the reaction, the cells were lysed with equal volume of the d2-cAMP solution and anti-cAMP solution. After a 1-h room temperature incubation, time-resolved fluorescence intensity was measured using the Envision (Perkin-Elmer) at 400 nm excitation and dual emission at 590 nm and 665 nm. A calibration curve was constructed with an external cAMP standard at concentrations ranging from 1 μM to 0.1 pM by plotting the fluorescent intensity ratio from 665 nm emission to the intensity from the 590 nm emission against cAMP concentrations. The potency and activity of a compound to inhibit cAMP production was then determined by fitting to a 4-parametric logistic equation from a plot of cAMP level versus compound concentrations.
experimental endpoint: EC50

O=C(Nc1cnc(Cl)cn1)N[C@@H]1CCCN(c2ccc(C3(CN4CCOCC4)CC3)cc2)C1=O :: < 10 nM
O=C(Nc1ccc(C(F)(F)F)cc1)N[C@@H]1CCCN(c2ccc(C3CCOCC3)cc2)C1=O :: < 10 nM
